- TEST: qHTS of pediatric cancer cell lines to identify multiple opportunities for drug repurposing: Primary screen for A673 cells (AID 1347092); also: nearly all actives have a fitted effect of over 45% in size
- SETTINGS: A673 Ewing sarcoma viability, CellTiter-Glo ATP luminescence, 48 h; series mostly up to 46 µM
Records with an inconclusive call do not appear. Activity calls are given as the source filed them. Calls follow the shape of the dose curve; as a rule, active = well fitted cell-killing curve with a large enough effect; inconclusive = small, poorly fitted or top-dose-only effect; inactive = no such curve, though single readings can be large or run the other way.
In this exercise, the only acceptable responses are active, inactive

// known answers, use as guide
[[record]]
molecule = "CCCCCCCCCCCCCCCC(=O)OC[C@@H](NC(=O)C(Cl)Cl)[C@H](O)c1ccc([N+](=O)[O-])cc1"
class_name = "inactive"

[[record]]
molecule = "CN[C@H](CC(C)C)C(=O)N[C@H]1C(=O)N[C@@H](CC(N)=O)C(=O)N[C@@H]2C(=O)N[C@H]3C(=O)N[C@H](C(=O)N[C@H](C(=O)O)c4cc(O)cc(O)c4-c4cc3ccc4O)[C@H](O)c3ccc(c(Cl)c3)Oc3cc2cc(c3O[C@@H]2O[C@H](CO)[C@@H](O)[C@H](O)[C@@H]2O[C@H]2C[C@](C)(N)[C@H](O)[C@H](C)O2)Oc2ccc(cc2Cl)[C@H]1O"
class_name = "inactive"


Let's switch to this molecule now.
Challenge: Lab log entry: "CC(C=CC=C(C)C=CC1=C(C)CCCC1(C)C)=CC=CC=C(C)C=CC=C(C)C=CC1=C(C)CCCC1(C)C" — outcome as called in the assay?
Response given: active

----------
- TEST: Quantitative High-Throughput drug screen in 47 multiple myeloma cell lines against the NCATS MIPE library collection: Karpas417_ECACC cell viability assay (AID 1918961)
- SETTINGS: Karpas417 myeloma viability, CellTiter-Glo ATP luminescence, 48 h
Results filed as inconclusive are left out. Calls of active or inactive are those of the source. Calls follow the shape of the dose curve; as a rule, active = well fitted cell-killing curve with a large enough effect; inconclusive = small, poorly fitted or top-dose-only effect, or effect the other way; inactive = no such curve, though single readings can be large or run the other way.
In this exercise, the only acceptable responses are active, inactive

[[record]]
compound = "Nc1ccc(C(=O)Nc2cccc(-c3nc(N4CCOCC4)c4oc5ncccc5c4n3)c2)cn1"
class_name = "active"

[[record]]
compound = "CN1CCc2c(c3ccccc3n2Cc2ccc(C(=O)NO)cc2)C1"
class_name = "active"

[[record]]
compound = "CNC(=O)c1ccc(Nc2cc(Nc3ccccc3S(=O)(=O)C(C)C)c3cc[nH]c3n2)nc1"
class_name = "active"

[[record]]
compound = "COc1cccc2c1C(=O)c1c(O)c3c(c(O)c1C2=O)C[C@@](O)(C(=O)CO)C[C@@H]3O[C@H]1C[C@H](N)[C@H](OC2CCCCO2)[C@H](C)O1 (some centres undefined)"
class_name = "inactive"

[[record]]
compound = "C[C@@]12C(=O)OC(=O)[C@@]1(C)C1CCC2O1"
class_name = "active"


Challenge: Lab log entry: "COc1cc(OC)cc(-c2ccc3ncc4ccc(=O)n(-c5ccc(N6CCNCC6)c(C(F)(F)F)c5)c4c3c2)c1" — outcome as called in the assay?
Response given: active

Challenge: Lab log entry: "O=C(Nc1nnc(-c2ccco2)o1)c1cc(-c2ccccc2)nc2ccccc12" — outcome as called in the assay?
Response given: active

Challenge: Lab log entry: "CN(C)CC(=O)N1CCC(c2ccc(NC(=O)c3ncc(C#N)[nH]3)c(C3=CCCCC3)c2)CC1" — outcome as called in the assay?
Response given: active

Challenge: Lab log entry: "NS(=O)(=O)OC[C@@H]1C[C@@H](n2ccc3c(N[C@H]4CCc5ccccc54)ncnc32)C[C@H]1O" — outcome as called in the assay?
Response given: inactive

Challenge: Lab log entry: "CCCCCCCCc1ccc(CCC(N)(CO)CO)cc1" — outcome as called in the assay?
Response given: active

----------
- TEST: Quantitative High-Throughput drug screen in 47 multiple myeloma cell lines against the NCATS MIPE library collection: UTMC2_PLB cell viability assay (AID 1919868); also: nearly all actives have a fitted effect of over 55% in size
- SETTINGS: CellTiter-Glo ATP luminescence, 48 h
Results filed as inconclusive are left out. Calls of active or inactive are those of the source. Calls come from the whole dose curve; as a rule, active = well fitted cell-killing curve with a large enough effect; inconclusive = small, poorly fitted or top-dose-only effect, or effect the other way; inactive = no such curve, though single readings can be large or run the other way.
In this exercise, the only acceptable responses are y for active, n for inactive

// known answers, use as guide
[[record]]
compound = "OCc1ccccc1O[C@@H]1O[C@H](CO)[C@H](O)[C@H](O)[C@H]1O"
class_name = "n"

[[record]]
compound = "NC1=N[C@H]2[C@H](CS[C@H]2CCCCC(=O)O)N1"
class_name = "n"


Challenge: Lab log entry: "C[C@@H]1[C@H](C)CC[C@]2(C(=O)O)CC[C@]3(C)C(=CC[C@@H]4[C@@]5(C)C[C@@H](O)[C@H](O)[C@@](C)(CO)[C@H]5CC[C@]43C)[C@@H]12" — outcome as called in the assay?
Response given: n

Challenge: Lab log entry: "COc1cc([C@@H]2c3cc4c(cc3[C@@H](O[C@@H]3O[C@@H]5CO[C@@H](c6cccs6)O[C@@H]5[C@H](O)[C@@H]3O)[C@H]3COC(=O)[C@H]23)OCO4)cc(OC)c1O" — outcome as called in the assay?
Response given: y

Challenge: Lab log entry: C[C@@H]1C(=O)O[C@H]2CC34[C@H]5C[C@@H](C(C)(C)C)C36[C@H](OC(=O)[C@@H]6O)O[C@@]4(C(=O)O5)[C@]21O (some centres not stated) — outcome as called in the assay?
Response given: n

Challenge: Lab log entry: "CC(C)C[C@H](NC(=O)[C@@H](NC(=O)c1cccc(-c2ccccc2)n1)[C@@H](C)O)B(O)O" — outcome as called in the assay?
Response given: y

Challenge: Lab log entry: "CCc1cnn2c(NCc3ccc[n+]([O-])c3)cc(N3CCCC[C@@H]3CCO)nc12" — outcome as called in the assay?
Response given: y

----------
- TEST: qHTS Screen of the MIPE 4.0 Collection Against Ewings Sarcoma (RDES) (AID 1259252); also: nearly all actives have a fitted effect of over 35% in size
- SETTINGS: RD-ES Ewing sarcoma viability, CellTiter-Glo, 48 h; series mostly up to 45.8 µM
Inconclusive results are not listed. Calls of active or inactive are those of the source. The call rests on the fitted dose curve; in most records, active means well fitted inhibition curve with a large enough effect; inconclusive means small, poorly fitted or top-dose-only effect; inactive means no such curve, though single readings can be large or run the other way.
In this exercise, the only acceptable responses are active, inactive

// known answers, use as guide
[[record]]
compound = "COc1cc(O)c2c(c1)C1OC1C[C@H](O)[C@H](O)C(=O)C=CC[C@H](C)OC2=O (some centres undefined)"
class_name = "active"

[[record]]
compound = "CN(C)CCN1C(=O)c2cccc3cc(N)cc(c23)C1=O"
class_name = "active"


Let's switch to this compound now.
Challenge: Lab log entry: "COc1ccc2cc([S+]([O-])Cc3ncc(C)c(OC)c3C)nc2c1" — outcome as called in the assay?
Response given: inactive

----------
- TEST: Quantitative High-Throughput drug screen in 47 multiple myeloma cell lines against the NCATS MIPE library collection: MM1S_ATCC cell viability assay (AID 1918980); also: nearly all actives have a fitted effect of over 45% in size; also: potency is read from the fitted curve at half-maximal effect
- SETTINGS: MM1S myeloma viability, CellTiter-Glo ATP luminescence, 48 h; series mostly up to 45.8 µM
- From the text: PI: Beverly A. Mock Ph.D. Laboratory of Cancer Biology and Genetics, Center for Cancer Research, National Cancer Institute, National Institute of Health, Bethesda, Maryland […] 5; Detector; 425V; Luminescence; Viewlux PerkinElmer. […] 1. […] Briefly, the corresponding myeloma cell lines were screened in 1,536-well plates with 500 cells, 5-uL per well for inhibition of cell viability (assessed by measuring ATP levels with CellTiterGlo). […]
Results filed as inconclusive are left out. Calls of active or inactive are those of the source. The call rests on the fitted dose curve; in most records, active means well fitted cell-killing curve with a large enough effect; inconclusive means small, poorly fitted or top-dose-only effect, or effect the other way; inactive means no such curve, though single readings can be large or run the other way.
MEASURED ENDPOINT: Potency

[[record]]
compound = "CN1[C@H]2CC(OC(=O)[C@@H](CO)c3ccccc3)C[C@H]1[C@H]1O[C@H]12 (stereo partly drawn)"
measurement = "inactive"

[[record]]
compound = "COC(=O)C1C2CC3c4[nH]c5cc(OC)ccc5c4CCN3CC2CC(OC(=O)c2cc(OC)c(OC)c(OC)c2)C1OC (stereo not drawn)"
measurement = "14800 nM (active)"

[[record]]
compound = "NC(=O)Nc1cc(-c2ccc(CN3CCOCC3)cc2)sc1C(N)=O"
measurement = "16600 nM (active)"

[[record]]
compound = "O=C1NC(=O)[C@@H](c2cn3c4c(cccc24)CCC3)[C@H]1c1c[nH]c2ccccc12"
measurement = "18700 nM (active)"

[[record]]
compound = "CC(C=CC=C(C)C=CC1=C(C)CCCC1(C)C)=CC=CC=C(C)C=CC=C(C)C=CC1=C(C)CCCC1(C)C"
measurement = "5900 nM (active)"


Challenge: What Potency value was documented for this compound, "C=CC(=O)Nc1ccc2ncnc(Nc3ccc(OCc4cccc(F)c4)c(Cl)c3)c2c1" ?
Response given: 1660 nM (active)

Challenge: What Potency value was documented for this compound, "CS(=O)(=O)N1CCc2c(-c3cnc(N)nc3)nc(N3CCOCC3)nc21" ?
Response given: 235 nM (active)

Challenge: What Potency value was documented for this compound, "CC(=O)N1CCN(c2ccc(OCc3nn(C)c(C)c3-c3cccc4c(CCCOc5cccc6ccccc56)c(C(=O)O)n(Cc5cccnc5)c34)cc2)CC1" ?
Response given: 37.2 nM (active)

Challenge: What Potency value was documented for this compound, "NS(=O)(=O)OC[C@@H]1C[C@@H](n2ccc3c(N[C@H]4CCc5ccccc54)ncnc32)C[C@H]1O" ?
Response given: 2640 nM (active)
